test system: HT-29; experiment: Growth inhibition of human HT-29 cells at 10 uM after 48 hrs by sulforhodamine B assay; type: functional; details: HT-29, 48 h, read-out: GI
Recorded inhibition of growth at 10 µM by entry

{"Smiles representation": "O=S(=O)(Nc1ccc(Cl)cc1)c1ccc2nc(-c3ccccc3)c(-c3ccccc3)nc2c1", "inhibition of growth at 10 µM": "70.4%"}
{"Smiles representation": "O=C(NS(=O)(=O)c1ccc2nc(-c3ccccc3)c(-c3ccccc3)nc2c1)c1ccccc1", "inhibition of growth at 10 µM": "48.4%"}
{"Smiles representation": "NC(=S)NNS(=O)(=O)c1ccc2nc(-c3ccccc3)c(-c3ccccc3)nc2c1", "inhibition of growth at 10 µM": "30.8%"}
{"Smiles representation": "O=S(=O)(Nc1ccccn1)c1ccc2nc(-c3ccccc3)c(-c3ccccc3)nc2c1", "inhibition of growth at 10 µM": "81.7%"}
{"Smiles representation": "COc1ccccc1NS(=O)(=O)c1ccc2nc(-c3ccccc3)c(-c3ccccc3)nc2c1", "inhibition of growth at 10 µM": "63.9%"}
{"Smiles representation": "CC(=S)NS(=O)(=O)c1ccc2nc(-c3ccccc3)c(-c3ccccc3)nc2c1", "inhibition of growth at 10 µM": "21.5%"}
{"Smiles representation": "O=S(=O)(Nc1cccc2ccccc12)c1ccc2nc(-c3ccccc3)c(-c3ccccc3)nc2c1", "inhibition of growth at 10 µM": "82.5%"}
